FYI, the data here is from patent US11008403.

// reported Kd per item
# System tested: T1, cyno TfR ECD (cynomolgus)
# T1 chain: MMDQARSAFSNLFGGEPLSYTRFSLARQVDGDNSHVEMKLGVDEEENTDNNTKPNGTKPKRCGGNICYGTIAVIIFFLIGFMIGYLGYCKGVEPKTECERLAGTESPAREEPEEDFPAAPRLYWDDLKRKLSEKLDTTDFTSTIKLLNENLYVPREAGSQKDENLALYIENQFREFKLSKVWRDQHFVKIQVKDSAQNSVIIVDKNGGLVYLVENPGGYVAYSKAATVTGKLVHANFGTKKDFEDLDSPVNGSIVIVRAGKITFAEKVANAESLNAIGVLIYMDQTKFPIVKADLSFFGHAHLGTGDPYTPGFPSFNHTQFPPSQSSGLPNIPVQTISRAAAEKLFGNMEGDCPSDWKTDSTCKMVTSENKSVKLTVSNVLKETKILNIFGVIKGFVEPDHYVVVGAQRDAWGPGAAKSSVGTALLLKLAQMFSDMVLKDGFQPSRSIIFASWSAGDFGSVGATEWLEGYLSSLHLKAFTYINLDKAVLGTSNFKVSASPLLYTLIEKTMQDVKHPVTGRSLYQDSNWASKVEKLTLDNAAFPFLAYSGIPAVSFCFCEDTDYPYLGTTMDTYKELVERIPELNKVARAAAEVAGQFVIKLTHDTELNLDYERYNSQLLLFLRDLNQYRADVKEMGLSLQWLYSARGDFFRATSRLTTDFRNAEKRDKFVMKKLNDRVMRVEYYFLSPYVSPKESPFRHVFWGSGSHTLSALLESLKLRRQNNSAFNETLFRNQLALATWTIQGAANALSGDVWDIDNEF
# Method notes: SPR
# output: bare number, implied unit nM

Worked examples follow.
[
  {
    "Binder": "Hu15G11.HC52A Fab (antiTfR.52A.Fab) (antibody, V domains shown) VH: EVQLVQSGAEVKKPGASVKVSCKASGYTFTSYWMHWVRQAPGQRLEWIGEIAPTNGRTNYIEKFKSRATLTVDKSASTAYMELSSLRSEDTAVYYCARGTRAYHYWGQGTMVTVSS VL: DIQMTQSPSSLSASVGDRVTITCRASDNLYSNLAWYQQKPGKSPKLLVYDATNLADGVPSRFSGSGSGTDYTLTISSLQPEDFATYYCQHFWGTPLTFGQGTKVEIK",
    "Unit spec": "nM",
    "Kd": 117
  },
  {
    "Binder": "Hu15G11.HC51A Fab (antibody, V domains shown) VH: EVQLVQSGAEVKKPGASVKVSCKASGYTFTSYWMHWVRQAPGQRLEWIGEANPTNGRTNYIEKFKSRATLTVDKSASTAYMELSSLRSEDTAVYYCARGTRAYHYWGQGTMVTVSS VL: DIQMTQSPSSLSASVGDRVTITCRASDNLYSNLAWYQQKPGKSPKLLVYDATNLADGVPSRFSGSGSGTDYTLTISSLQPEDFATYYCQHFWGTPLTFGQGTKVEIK",
    "Unit spec": "nM",
    "Kd": 105
  },
  {
    "Binder": "Hu15G11.v5 Fab (antibody, V domains shown) VH: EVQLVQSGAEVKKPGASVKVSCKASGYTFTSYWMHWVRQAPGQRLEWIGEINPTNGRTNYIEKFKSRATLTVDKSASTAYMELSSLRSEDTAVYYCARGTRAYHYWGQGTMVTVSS VL: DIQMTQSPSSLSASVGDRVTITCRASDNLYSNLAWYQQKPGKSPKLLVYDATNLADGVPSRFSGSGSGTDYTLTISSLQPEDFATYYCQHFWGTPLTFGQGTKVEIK",
    "Unit spec": "nM",
    "Kd": 28.2
  }
]

Reported Kd of Hu15G11.HC34A Fab (antibody, V domains shown) VH: EVQLVQSGAEVKKPGASVKVSCKASGYTFTSYWAHWVRQAPGQRLEWIGEINPTNGRTNYIEKFKSRATLTVDKSASTAYMELSSLRSEDTAVYYCARGTRAYHYWGQGTMVTVSS VL: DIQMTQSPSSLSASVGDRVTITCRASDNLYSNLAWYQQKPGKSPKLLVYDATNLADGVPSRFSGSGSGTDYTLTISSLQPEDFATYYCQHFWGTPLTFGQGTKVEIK : 32.6

Reported Kd of Hu15G11.HC53A Fab (antibody, V domains shown) VH: EVQLVQSGAEVKKPGASVKVSCKASGYTFTSYWMHWVRQAPGQRLEWIGEINPANGRTNYIEKFKSRATLTVDKSASTAYMELSSLRSEDTAVYYCARGTRAYHYWGQGTMVTVSS VL: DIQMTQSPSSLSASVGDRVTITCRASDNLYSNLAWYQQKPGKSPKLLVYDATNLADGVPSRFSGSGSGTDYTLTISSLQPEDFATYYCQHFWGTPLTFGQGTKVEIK : 51.8
